# Test protocol: In vitro rat liver S9 stability assay, formation of tafamidis
# Format: in vitro ADME
# Condition details: rat liver S9, 37° C., 1 µM test compound
Metric name: Formation of tafamidis at 60 min

>  <Compound>
O=C(OCCN1CCOCC1)c1ccc2nc(-c3cc(Cl)cc(Cl)c3)oc2c1

>  <Experimental result>
D (D is ≥75%)

$$$$
>  <Compound>
O=C(OC1CCN(Cc2ccccc2)C1)c1ccc2nc(-c3cc(Cl)cc(Cl)c3)oc2c1 (stereo not shown)

>  <Experimental result>
A (A is <25%)

$$$$
>  <Compound>
Cn1cc(COC(=O)c2ccc3nc(-c4cc(Cl)cc(Cl)c4)oc3c2)cn1

>  <Experimental result>
C (C is ≥50 to <75%)

$$$$
>  <Compound>
CC(OC(=O)c1ccc2nc(-c3cc(Cl)cc(Cl)c3)oc2c1)C1CCOC1 (stereo not shown)

>  <Experimental result>
B (B is ≥25 to <50%)

$$$$
>  <Compound>
CN(C)[C@H]1CCC[C@H]1OC(=O)c1ccc2nc(-c3cc(Cl)cc(Cl)c3)oc2c1

>  <Experimental result>
A (A is <25%)

$$$$
>  <Compound>
CN(C)[C@@H]1CC[C@H]1OC(=O)c1ccc2nc(-c3cc(Cl)cc(Cl)c3)oc2c1

>  <Experimental result>
B (B is ≥25 to <50%)

$$$$
>  <Compound>
O=C(OCc1cncnc1)c1ccc2nc(-c3cc(Cl)cc(Cl)c3)oc2c1

>  <Experimental result>
C (C is ≥50 to <75%)

$$$$
>  <Compound>
CN1CCCC(OC(=O)c2ccc3nc(-c4cc(Cl)cc(Cl)c4)oc3c2)C1 (stereo not shown)

>  <Experimental result>
B (B is ≥25 to <50%)

$$$$
>  <Compound>
CS(=O)(=O)N1CCC(OC(=O)c2ccc3nc(-c4cc(Cl)cc(Cl)c4)oc3c2)C1 (stereo not shown)

>  <Experimental result>
B (B is ≥25 to <50%)

$$$$
>  <Compound>
O=C(OC1CCN2CCCC12)c1ccc2nc(-c3cc(Cl)cc(Cl)c3)oc2c1 (stereo not shown)

>  <Experimental result>
A (A is <25%)

$$$$

Ask: // query Formation of tafamidis at 60 min value for entry CC(CN(C)C)OC(=O)c1ccc2nc(-c3cc(Cl)cc(Cl)c3)oc2c1 (single isomer, unassigned) [Compound 46]
Result: A (A is <25%)

Ask: // query Formation of tafamidis at 60 min value for entry [2H]C([2H])([2H])N1CCC(OC(=O)c2ccc3nc(-c4cc(Cl)cc(Cl)c4)oc3c2)C1 (stereo not shown)
Result: A (A is <25%)

Ask: // query Formation of tafamidis at 60 min value for entry CC(Cn1ccnc1)OC(=O)c1ccc2nc(-c3cc(Cl)cc(Cl)c3)oc2c1 (stereo not shown)
Result: B (B is ≥25 to <50%)

====

# Test protocol: In vitro rat liver S9 stability assay, formation of tafamidis
# Format: in vitro ADME
# Condition details: rat liver S9, 37° C., 1 µM test compound
Metric name: Formation of tafamidis at 60 min

# annotated cases, reported Formation of tafamidis at 60 min shown
>  <Compound>
N#CCCN1CCC(OC(=O)c2ccc3nc(-c4cc(Cl)cc(Cl)c4)oc3c2)C1 (stereo not drawn)

>  <Metric name>
Formation of tafamidis at 60 min

>  <Experimental result>
C (C is ≥50 to <75%)

$$$$
>  <Compound>
CC(OC(=O)c1ccc2nc(-c3cc(Cl)cc(Cl)c3)oc2c1)c1ncccn1 (stereo not drawn)

>  <Metric name>
Formation of tafamidis at 60 min

>  <Experimental result>
C (C is ≥50 to <75%)

$$$$
>  <Compound>
CC[N+]1([O-])CCC(OC(=O)c2ccc3nc(-c4cc(Cl)cc(Cl)c4)oc3c2)C1 (stereo not drawn)

>  <Metric name>
Formation of tafamidis at 60 min

>  <Experimental result>
A (A is <25%)

$$$$
>  <Compound>
Cn1ccnc1COC(=O)c1ccc2nc(-c3cc(Cl)cc(Cl)c3)oc2c1

>  <Metric name>
Formation of tafamidis at 60 min

>  <Experimental result>
D (D is ≥75%)

$$$$

Ask: // query Formation of tafamidis at 60 min value for entry CN1CCC(CCCOC(=O)c2ccc3nc(-c4cc(Cl)cc(Cl)c4)oc3c2)C1 (stereo not drawn)
Result: A (A is <25%)

Ask: // query Formation of tafamidis at 60 min value for entry CCN1CCC(OC(=O)c2ccc3nc(-c4cc(Cl)cc(Cl)c4)oc3c2)C1 (stereo not drawn)
Result: A (A is <25%)

Ask: // query Formation of tafamidis at 60 min value for entry O=C(OCC1CCCN1Cc1ccccc1)c1ccc2nc(-c3cc(Cl)cc(Cl)c3)oc2c1 (stereo not drawn)
Result: C (C is ≥50 to <75%)

Taken from patent US20230287021A1.
